Here we gather IC50 data for Beta-glucuronidase (Homo sapiens, UniProt P08236) reported by several publications.
endpoint: IC50 (µM)

Known IC50 results, listed for orientation:
O=C(N/N=C/c1ccncc1)c1cc2cc(Cl)ccc2[nH]1
42.4
Cc1ccc(/C=N/NC(=O)c2cc3cc(Cl)ccc3[nH]2)cc1
43.5
COc1ccccc1-c1nnc(-c2ccc(C(=O)NNS(=O)(=O)c3ccccc3[N+](=O)[O-])cc2)o1
44.7
COC(=O)c1ccc(/C=N/NC(=O)c2cc3cc(Cl)ccc3[nH]2)cc1
22.6
COc1ccc(O)c(/C=N/NC(=O)c2cc3cc(Cl)ccc3[nH]2)c1
24.3

(a) O=C(NNC(=S)Nc1ccc(Br)cc1)c1ccc(C(c2c[nH]c3ccccc23)c2c[nH]c3ccccc23)cc1
(b) COc1ccccc1-c1nnc(-c2ccc(C(=O)NNS(=O)(=O)c3ccc(C)cc3)cc2)o1
Q) So which one has the bigger IC50 here, a or b ? Let me know the label of the one you choose.
A) b

---

Here we gather IC50 data for Beta-glucuronidase (Homo sapiens, UniProt P08236) reported by several publications.
endpoint: IC50 (µM)

(A) COc1ccccc1-c1nnc(-c2ccc(C(=O)NNS(=O)(=O)c3cccc([N+](=O)[O-])c3)cc2)o1
(B) COc1cccc(NC(=S)NNC(=O)c2ccc(C(c3c[nH]c4ccccc34)c3c[nH]c4ccccc34)cc2)c1
(C) O=C(N/N=C/c1ccc(F)c(Br)c1)c1cc2cc(Cl)ccc2[nH]1
Q) Descending sort on IC50 required. Kindly provide the labels arranged according to the requested ordering.
A) A, B, C
(A: 89.3 µM, B: 28.1 µM, C: 14.4 µM)

(a) O=C(N/N=C/c1cc(O)ccc1O)c1cc2cc(Cl)ccc2[nH]1
(b) COc1ccccc1-c1nnc(-c2ccc(C(=O)NNS(=O)(=O)c3cccc(Br)c3)cc2)o1
Q) So which one has the bigger IC50 here, a or b ? Let me know the label of the one you choose.
A) b
(b: 58.2 µM, a: 7.5 µM)
